subjectOfTest: Peregrin (Homo sapiens) (UniProt P55201)
Sequence (P55201 whole entry): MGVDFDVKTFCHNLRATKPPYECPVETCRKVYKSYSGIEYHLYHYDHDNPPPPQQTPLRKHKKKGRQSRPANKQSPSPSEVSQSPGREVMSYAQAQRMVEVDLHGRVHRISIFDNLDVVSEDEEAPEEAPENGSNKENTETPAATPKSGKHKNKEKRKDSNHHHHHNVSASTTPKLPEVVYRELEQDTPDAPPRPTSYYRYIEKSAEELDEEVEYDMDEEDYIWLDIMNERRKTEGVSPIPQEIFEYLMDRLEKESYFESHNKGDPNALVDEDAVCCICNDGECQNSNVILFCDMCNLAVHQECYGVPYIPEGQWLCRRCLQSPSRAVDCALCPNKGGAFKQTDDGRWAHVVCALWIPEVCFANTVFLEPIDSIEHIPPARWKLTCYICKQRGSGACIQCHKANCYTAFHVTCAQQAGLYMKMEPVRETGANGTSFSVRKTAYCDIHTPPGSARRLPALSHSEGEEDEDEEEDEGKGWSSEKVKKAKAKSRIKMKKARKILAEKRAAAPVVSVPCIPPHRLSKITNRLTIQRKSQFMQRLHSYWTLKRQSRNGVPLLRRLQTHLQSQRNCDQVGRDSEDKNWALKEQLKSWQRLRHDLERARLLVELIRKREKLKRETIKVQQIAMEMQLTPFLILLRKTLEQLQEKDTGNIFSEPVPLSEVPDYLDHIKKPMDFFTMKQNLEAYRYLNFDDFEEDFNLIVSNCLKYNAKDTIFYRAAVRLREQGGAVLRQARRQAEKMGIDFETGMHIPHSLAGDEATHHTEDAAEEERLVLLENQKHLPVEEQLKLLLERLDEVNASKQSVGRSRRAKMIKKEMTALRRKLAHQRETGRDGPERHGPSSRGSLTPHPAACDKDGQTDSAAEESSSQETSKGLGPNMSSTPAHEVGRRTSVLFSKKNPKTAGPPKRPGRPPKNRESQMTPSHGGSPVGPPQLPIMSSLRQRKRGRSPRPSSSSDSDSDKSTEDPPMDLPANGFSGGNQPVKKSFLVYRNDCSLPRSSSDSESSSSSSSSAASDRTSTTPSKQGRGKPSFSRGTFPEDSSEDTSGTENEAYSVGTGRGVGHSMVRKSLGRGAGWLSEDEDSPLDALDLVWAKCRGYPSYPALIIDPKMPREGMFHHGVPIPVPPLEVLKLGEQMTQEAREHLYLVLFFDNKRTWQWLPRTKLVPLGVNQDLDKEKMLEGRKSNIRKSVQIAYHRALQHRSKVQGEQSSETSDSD
condition: Compound concentration 20.0 uM, Protein concentration 2.0 uM, Result type QC Liability
Entries and their ΔTm values follow.
measuredQuantity: ΔTm

* COc1ccc2c(O[C@@H]3C[C@H]4C(=O)N[C@]5(C(=O)O)CC5/C=C\CCCCC[C@H](NC(=O)OC5CCCC5)C(=O)N4C3)cc(-c3csc(NC(=O)C(C)C)n3)nc2c1C (stereo not given in full) | -1.17 °C [middle of 4 runs]
* CCCCC/C=C/C=C1/C(=O)C=C[C@@H]1C/C=C\CCCC(=O)O | -3.72 °C
* O=C(O)CCCCN(CCc1ccccc1OCc1ccc(CCc2ccccc2)cc1)Cc1ccc(C(=O)O)cc1 | -2.23 °C
* COc1cc(-c2cncc(-c3ccc(N4CCN(C(C)C)CC4)cc3)c2C)cc(F)c1C(=O)N1CCCC1 | -1.67 °C
* CC(C)(C)c1cc(NC(=O)c2csc(Nc3ccccn3)n2)no1 | -2.33 °C
* CSc1ccc(C[C@@H](C)C(=O)O)cc1Nc1nc(N2CC[C@H](N(C)C)C2)cc(C(F)F)c1C#N | -2.68 °C
* COCCCS(=O)(=O)c1cc(C)c(-c2ccc(F)c3c2CC[C@H]3Oc2ccc3c(c2)OC[C@H]3CC(=O)O)c(C)c1 | -4.61 °C
* Cn1nc(-c2ccc(C(N)=O)cc2)c2ccccc2c1=O | -1.74 °C
* O=C(O)C[C@H]1CC[C@H](c2ccc(NC(=O)c3nnc(Nc4ccc(F)c(F)c4)o3)cc2)CC1 | -2.89 °C
* CC(C)C[C@H](NC(=O)[C@@H](O)[C@H](N)Cc1ccccc1)C(=O)O | -2.93 °C
* N[C@@H]1CCCC[C@H]1Oc1ccc2ncc(-c3cc4ccccc4o3)n2n1 | -2.67 °C
* Cc1cc(-c2nc(-c3ccc(OC(F)(F)F)cc3)no2)nn1Cc1ccnc(N2CCN(C3CC3)CC2)c1 | -10.7 °C
* C[C@@]1(Cc2ccc(C#N)cc2)C(=O)N(c2cc(Cl)cc(Cl)c2)c2ncc(C(=O)NC3(c4nc(C5CCC5)no4)CC3)n21 | 3.75 °C
* Nc1nccc(-c2c(-c3ccc(F)cc3)ncn2C2CCCCC2)n1 | -0.2 °C
* CCCS(=O)(=O)N[C@H]1C[C@@H](N(C)c2ncnc3[nH]ccc23)C1 | -1.75 °C
* N#C/C(=C\c1ccc(O)c(O)c1)C(=O)OCCc1cccs1 | -0.27 °C
* COc1cc(C(=O)NCCOCCOCCOCCC(=O)Nc2cccc3c2C(=O)N(C2CCC(=O)NC2=O)C3=O)ccc1Nc1ncc(C(F)(F)F)c(Oc2cccc3c2C(=O)CC3)n1 (stereo not given) | -2.32 °C
* CCCn1cc(-c2cc(C3C(=O)N(CC)c4ccc(C(F)(F)F)cc4N(c4ccccc4)C3=O)cc(OC)c2O)cn1 (stereo not given) | -1.21 °C
* O=C(Nc1cccc(C(F)(F)F)c1)c1cccc(-n2cc(-c3ccco3)nn2)c1 | -8.11 °C
* CC[C@H]1[C@@H](O)[C@@H]2[C@H](CC[C@]3(C)[C@@H]([C@H](C)CCC(=O)O)CC[C@@H]23)[C@@]2(C)CC[C@@H](O)C[C@@H]12 | -1.33 °C
* CNc1ncc2cc(-c3ccc(-c4cccc(C)n4)cc3Cl)c(=O)n(C[C@H]3OC[C@H](N)CO3)c2n1 | -2.41 °C
* CCN(C(=O)CO)[C@H]1CN(/C(=N\C#N)Nc2cccc(OC(F)F)c2)N=C1c1ccc(Cl)c(Cl)c1 | -1.11 °C
* Cc1cc(OC2CCS(=O)(=O)CC2)cc(C)c1-c1cccc(COc2ccc(C(=O)O)c(F)c2)c1 | -2.62 °C
* O=C(O)c1ccc2c(c1)nc(NCc1ccccc1)c1ncncc12 | -1.74 °C
* CC(=O)Nc1nc(CN2CCC[C@H](Cc3cc(C)nc(C)c3)C2)cs1 | -1.25 °C
* CN1C(=O)[C@@H](NC(=O)c2cc(Cc3ccccc3)on2)COc2ccccc21 | -1.87 °C
* C[C@@H]1CCNC(=O)c2cc3ccc(C(=O)Nc4nc5ccccc5n4CCCN(C)C)cc3n21 | -2.35 °C
* CCCCCCCN(CCc1ccc(SC(C)(C)C(=O)O)cc1)C(=O)Nc1ccc(F)cc1F | -1.59 °C
* CC[C@@H](C(=O)OC)n1c(=O)c2ccccc2n(Cc2cn(C)c3cccc(C)c23)c1=O | -3.31 °C
* Cc1nc2ccc(Cl)cc2c(-c2ccccc2)c1CC(=O)O | -3.32 °C

All values here come from ChEMBL document CHEMBL5308504.
